# Tested on: Saccharomyces cerevisiae PS128 hsf1 delta, HSF1(1-493) fusion
# assay.info: growth estimate (transactivation domain function in HSF1 fusion, heat-shock survival) (a.u. (slope of normalised read count over time)); higher = stronger growth at 37°C, i.e. more transactivation activity
# cond: library: design library
// values below are reported growth estimate
Number, no unit, nothing else.

Example entries begin here.
EDDDEFSLWPSML | -0.166
DELSWIIELLEPDG | 7.58
DLDESWAYIFETTE | 0.283
EDGYSILWSDVY | -0.236
EGNDLLDLDFILSN | 0.62

INPUT: Which growth estimate value is on record for "LFDYDFLFGNDFK" ?
OUTPUT: 2.23

Source of measurements: the supplement of paper PMC5949888
